Target: dopamine transporter (DAT) (Rattus norvegicus (Rat), UniProt P23977)
Sequence (P23977 whole entry): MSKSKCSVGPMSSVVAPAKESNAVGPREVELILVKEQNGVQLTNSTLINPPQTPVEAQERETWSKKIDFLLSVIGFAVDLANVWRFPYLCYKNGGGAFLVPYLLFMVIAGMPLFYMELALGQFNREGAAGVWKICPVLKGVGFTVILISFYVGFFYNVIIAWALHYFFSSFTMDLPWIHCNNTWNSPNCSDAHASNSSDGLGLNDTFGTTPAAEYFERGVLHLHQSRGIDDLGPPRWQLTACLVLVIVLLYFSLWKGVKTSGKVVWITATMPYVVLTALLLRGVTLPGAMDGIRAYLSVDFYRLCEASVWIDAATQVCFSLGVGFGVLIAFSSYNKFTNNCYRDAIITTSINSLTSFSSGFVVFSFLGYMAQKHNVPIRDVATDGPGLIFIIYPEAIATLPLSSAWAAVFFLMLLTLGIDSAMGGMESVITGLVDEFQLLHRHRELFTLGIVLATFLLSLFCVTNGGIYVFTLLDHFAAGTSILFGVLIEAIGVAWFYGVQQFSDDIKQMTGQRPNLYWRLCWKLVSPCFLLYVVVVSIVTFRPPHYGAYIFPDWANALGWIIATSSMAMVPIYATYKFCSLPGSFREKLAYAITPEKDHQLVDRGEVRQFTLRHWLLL
Assay: Dopamine Transporter Binding Assay ([3H]WIN 35428, rat striatal membranes)
Conditions: read-out: DAT Ki ± SEM
Kindly state Ki for each of the entries shown.
Entry rule: numbers only, all in nM.

Value of Ki reported for the compound [O-][S+](CCN1CCN(CCCc2ccccc2)CC1)C(c1ccc(F)cc1)c1ccc(F)cc1 (stereo not drawn) is 2.92

So, CC(O)CN1CCN(CC[S+]([O-])C(c2ccccc2)c2ccccc2)CC1 (racemic) [Compound 10a] ? Its Ki was 636

According to the records, this compound [O-][S+](CCN1CCN(CCCc2ccccc2)CC1)C(c1ccccc1)c1ccccc1 (stereo not drawn) displays Ki of 3.17
